Source listed as patent US7138140B2.

assay: Measurement of an optically active substance ratio (chiral stationary phase column); assay type: physicochemical; settings: crystals; Chiralcel OD-H column; p-toluenesulfonate
Measured Optically active substance ratio ((+)/(−)), listed per entry for reference.
Please give the numeric answer without any surrounding text.

[[record]]
molecule = "CCOCC(O)COc1ccc(NC(=O)CC[S+](C)C)cc1.Cc1ccc(S(=O)(=O)[O-])cc1 (racemic) [Comparative Example 3]"
obs_value = 0.94


Challenge: # get_value(readout='Optically active substance ratio ((+)/(−))', item= CCOCC(O)COc1ccc(NC(=O)CC[S+](C)C)cc1.Cc1ccc(S(=O)(=O)[O-])cc1 (racemic) [Example 1] )
Response given: 1.00

Challenge: Can you check CCOCC(O)COc1ccc(NC(=O)CC[S+](C)C)cc1.Cc1ccc(S(=O)(=O)[O-])cc1 (racemic) [Example 3] next?
Response given: 1.00

====

Test: Measurement of an optically active substance ratio (chiral stationary phase column)
Type: physicochemical
Conditions: crystals; Chiralcel OD-H column; p-toluenesulfonate
Method: [Test 1] Measurement of an Optically Active Substance Ratio The optically active substance ratio of each of the suplatast tosilate crystals of the present invention obtained in Examples 1 to 3, and the suplatast tosilate first crystals obtained in Comparative Examples 1 to 3 was measured using a chiral stationary phase column (“Chiralcel OD-H”, 4.6 mm×25 cm, product of Daicel Chemical Industries) with n-hexane ethanol-trifluoroacetic acid-diethylamine (750:250:5:1) as a mobile phase. […]
Property: Optically active substance ratio ((+)/(−))
Please give the numeric answer without any surrounding text.

[[record]]
compound = "CCOCC(O)COc1ccc(NC(=O)CC[S+](C)C)cc1.Cc1ccc(S(=O)(=O)[O-])cc1 (racemic) [Example 2]"
obs_value = 1.00

[[record]]
compound = "CCOCC(O)COc1ccc(NC(=O)CC[S+](C)C)cc1.Cc1ccc(S(=O)(=O)[O-])cc1 (racemic) [Comparative Example 1]"
obs_value = 1.09


Note: attention shifts to another entry.
Challenge: # get_value(readout='Optically active substance ratio ((+)/(−))', item= CCOCC(O)COc1ccc(NC(=O)CC[S+](C)C)cc1.Cc1ccc(S(=O)(=O)[O-])cc1 (racemic) [Comparative Example 2] )
Response given: 0.97
